Would you mind telling me the reported IC50 of each entry?
- system: human P2X7 receptor (Homo sapiens, UniProt Q99572, R270H/Y155H)
- experimentNotes: Evaluation of human P2X7 receptor inhibitory activity (Yo-Pro uptake, BzATP stimulation, FLIPR TETRA)
- Assay type: cell-based
- measurementParameters: antagonistic activity for the human P2X7 receptor; read-out: IC50

Query: IC50; subject: COc1cn(Cc2ccc(F)c(F)c2)c(Nc2cc(-c3ccc(C)o3)ccc2C)nc1=O
10 to 100 nM

Check COc1ccc(C)c(Nc2nc(=O)c(C(=O)O)cn2Cc2cc(F)c(F)c(F)c2)c1 too.
10 to 100 nM

Query COc1cn(Cc2ccccc2)c(Nc2c(C)ccc(C)c2F)nc1=O next
10 to 100 nM

Thanks! And COc1cc(C)c(Nc2nc(=O)c(OC)cn2Cc2cc(F)c(F)c(F)c2)cc1C ?
< 10 nM
